study target: rat brain monoamine oxidase-A (Rattus norvegicus)
Construct: appropriately diluted homogenates of rat brain or liver; from tissue; host or cells: rat brain or liver homogenate
protocol text: Monoamine oxidase-A inhibiting activity in vitro (radiochemical, 5-hydroxytryptamine substrate, rat brain homogenate)
Type: biochemical
test conditions: 1 × 10^-8 M
result type: inhibition at 0.01 µM (%)
Give your result in % as a bare value.

molecule="C#CCN(N)Cc1ccccc1 [CVT-P046, N^1 -propargylbenzylhydrazine]" value_unit=% numeric_value=-5
molecule=C#CCN(CCc1ccccc1)NC(C)=O value_unit=% numeric_value=0.3
molecule="C#CCN(N)c1ccccc1 [CVT-P047, N^1 -propargylphenylhydrazine]" value_unit=% numeric_value=-2.9
molecule=C#CCN(N)CCc1ccccc1 value_unit=% numeric_value=0.7

Continue with the next molecule.
Using the record for NNCCc1ccccc1 [phenelzine, 1-(2-phenyl) ethylhydrazine, reference compound] , state its measured inhibition at 0.01 µM.
6.9

---

study target: rat brain monoamine oxidase-B (Rattus norvegicus)
Construct: appropriately diluted homogenates of rat brain or liver; from tissue; host or cells: rat brain or liver homogenate
Sequence (P19643 whole entry): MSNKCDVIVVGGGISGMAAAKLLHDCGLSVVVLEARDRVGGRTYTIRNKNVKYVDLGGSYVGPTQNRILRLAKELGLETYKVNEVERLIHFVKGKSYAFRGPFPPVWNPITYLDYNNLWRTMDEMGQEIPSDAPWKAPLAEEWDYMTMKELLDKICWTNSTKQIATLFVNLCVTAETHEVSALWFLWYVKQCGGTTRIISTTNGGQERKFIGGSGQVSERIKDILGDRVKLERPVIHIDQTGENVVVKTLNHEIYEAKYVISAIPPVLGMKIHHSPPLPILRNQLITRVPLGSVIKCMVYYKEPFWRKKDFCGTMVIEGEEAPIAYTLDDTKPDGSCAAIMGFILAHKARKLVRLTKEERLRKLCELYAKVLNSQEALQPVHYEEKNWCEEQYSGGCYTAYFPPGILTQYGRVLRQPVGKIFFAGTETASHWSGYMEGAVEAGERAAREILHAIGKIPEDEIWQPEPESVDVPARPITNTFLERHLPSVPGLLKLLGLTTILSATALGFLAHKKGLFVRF
protocol text: Monoamine oxidase-B inhibiting activity in vitro (radiochemical, β-phenylethylamine substrate, rat brain homogenate)
Type: biochemical
test conditions: 1 × 10^-5 M
Listing: inhibition at 10 µM of selected molecules

molecule="C#CCN(N)Cc1ccccc1 [CVT-P046, N^1 -propargylbenzylhydrazine]" result_type="inhibition at 10 µM" result=92.3%

Using the record for C#CCN(N)c1ccccc1 [CVT-P047, N^1 -propargylphenylhydrazine] , state its measured inhibition at 10 µM.
94.3%

Using the record for C#CCNNCCc1ccccc1 , state its measured inhibition at 10 µM.
-0.2%

---

Listing: inhibition at 1 µM of selected molecules
study target: rat brain monoamine oxidase-A (Rattus norvegicus, UniProt P21396)
Construct: appropriately diluted homogenates of rat brain or liver; from tissue; host or cells: rat brain or liver homogenate
Sequence (P21396 1-526): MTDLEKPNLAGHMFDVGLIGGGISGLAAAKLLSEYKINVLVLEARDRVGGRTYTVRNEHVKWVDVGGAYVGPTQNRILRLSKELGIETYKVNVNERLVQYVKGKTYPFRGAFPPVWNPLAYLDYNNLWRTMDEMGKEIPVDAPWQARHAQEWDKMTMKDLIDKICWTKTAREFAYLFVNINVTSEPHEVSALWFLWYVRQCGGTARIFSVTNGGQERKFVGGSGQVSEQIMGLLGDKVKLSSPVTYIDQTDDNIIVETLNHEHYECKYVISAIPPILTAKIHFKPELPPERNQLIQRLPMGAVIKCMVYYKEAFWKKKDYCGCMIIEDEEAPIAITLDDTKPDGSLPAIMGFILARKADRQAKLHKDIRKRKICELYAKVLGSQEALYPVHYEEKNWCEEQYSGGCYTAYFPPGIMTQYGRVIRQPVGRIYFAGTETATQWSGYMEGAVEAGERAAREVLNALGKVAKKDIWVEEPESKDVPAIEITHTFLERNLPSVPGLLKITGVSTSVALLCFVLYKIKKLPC
protocol text: Monoamine oxidase-A inhibiting activity in vitro (radiochemical, 5-hydroxytryptamine substrate, rat brain homogenate)
Assay type: biochemical
test conditions: 1 × 10^-6 M
Give your result in % as a bare value.

Here are 3 molecules together with their reported answers.
molecule="NNCCc1ccccc1 [phenelzine, 1-(2-phenyl) ethylhydrazine, reference compound]" result_type="inhibition at 1 µM" numeric_value=98.9
molecule=C#CCN(CCc1ccccc1)NC(C)=O result_type="inhibition at 1 µM" numeric_value=4.2
molecule="C#CCN(N)c1ccccc1 [CVT-P047, N^1 -propargylphenylhydrazine]" result_type="inhibition at 1 µM" numeric_value=15.9

Using the record for C#CCN(N)CCc1ccccc1 , state its measured inhibition at 1 µM.
71.1

Using the record for C#CCN(N)Cc1ccccc1 [CVT-P046, N^1 -propargylbenzylhydrazine] , state its measured inhibition at 1 µM.
49.4

// provenance: patent US6060516A
